# Tested target: full-length human ATR protein (Homo sapiens (Human))
# Measurement protocol: Binding assay ATR (TR-FRET tracer displacement)
# Applied conditions: tracer A, TR-FRET; read-out: ATR binding (tracer A) IC50
pIC50: −log10 of the molar value.
Reported endpoint: pIC50

In [3]: df
Out[3]:
                                    compound  reported_endpoint   val
 0  Clc1cccc(-c2cc(N3CCOCC3)nc3c(-c4ccn[nH]4)nccc23)c1              pIC50  7.24
 1  C[C@@H]1COCCN1c1cc(-c2ccnc3[nH]ccc23)c2ccnc(-c3ccn[nH]3)c2n1              pIC50  7.85
 2  OCc1cccc(-c2cc(N3CCOCC3)nc3c(-c4ccn[nH]4)nccc23)c1              pIC50  7.54
 3  CN(C)C(=O)c1ccccc1-c1cc(N2CCOCC2)nc2c(-c3ccn[nH]3)nccc12              pIC50  5.92
 4  C[C@@H]1COCCN1c1cc([C@H]2C[C@@H]2C)c2ccnc(-c3ccn[nH]3)c2n1 (stereo in doubt)              pIC50  7.02
 5  Clc1ccc(-c2cc(N3CCOCC3)nc3c(-c4ccn[nH]4)nccc23)s1              pIC50  7.26
 6  COc1cc(-c2cc(N3CCOCC3)nc3c(-c4ccn[nH]4)nccc23)ccn1              pIC50  6.81
 7  c1cnc2c(-c3cc(N4CCOCC4)nc4c(-c5ccn[nH]5)nccc34)cccc2c1              pIC50  5.84
 8  Cc1cscc1-c1cc(N2CCOC[C@H]2C)nc2c(-c3ccn[nH]3)nccc12              pIC50  7.95
 9  Cc1cccc(-c2cc(N3CCOC[C@H]3C)nc3c(-c4ccn[nH]4)nccc23)n1              pIC50  6.79
10  CS(=N)(=O)CCCOc1cc(N2CCOCC2)nc2c(-c3ccn[nH]3)nccc12 (stereo not shown)              pIC50  6.32
11  C[C@@H]1COCCN1c1cc(C2(S(C)(=O)=O)CC2)c2ccnc(-c3ccn[nH]3)c2n1              pIC50  7.84
12  Oc1cccc(-c2cc(N3CCOCC3)nc3c(-c4ccn[nH]4)nccc23)c1              pIC50  7.55

---

# Tested target: full-length human ATR protein (Homo sapiens (Human), UniProt Q13535)
# Sequence (Q13535 other isoform, or with tags, fused parts or gaps): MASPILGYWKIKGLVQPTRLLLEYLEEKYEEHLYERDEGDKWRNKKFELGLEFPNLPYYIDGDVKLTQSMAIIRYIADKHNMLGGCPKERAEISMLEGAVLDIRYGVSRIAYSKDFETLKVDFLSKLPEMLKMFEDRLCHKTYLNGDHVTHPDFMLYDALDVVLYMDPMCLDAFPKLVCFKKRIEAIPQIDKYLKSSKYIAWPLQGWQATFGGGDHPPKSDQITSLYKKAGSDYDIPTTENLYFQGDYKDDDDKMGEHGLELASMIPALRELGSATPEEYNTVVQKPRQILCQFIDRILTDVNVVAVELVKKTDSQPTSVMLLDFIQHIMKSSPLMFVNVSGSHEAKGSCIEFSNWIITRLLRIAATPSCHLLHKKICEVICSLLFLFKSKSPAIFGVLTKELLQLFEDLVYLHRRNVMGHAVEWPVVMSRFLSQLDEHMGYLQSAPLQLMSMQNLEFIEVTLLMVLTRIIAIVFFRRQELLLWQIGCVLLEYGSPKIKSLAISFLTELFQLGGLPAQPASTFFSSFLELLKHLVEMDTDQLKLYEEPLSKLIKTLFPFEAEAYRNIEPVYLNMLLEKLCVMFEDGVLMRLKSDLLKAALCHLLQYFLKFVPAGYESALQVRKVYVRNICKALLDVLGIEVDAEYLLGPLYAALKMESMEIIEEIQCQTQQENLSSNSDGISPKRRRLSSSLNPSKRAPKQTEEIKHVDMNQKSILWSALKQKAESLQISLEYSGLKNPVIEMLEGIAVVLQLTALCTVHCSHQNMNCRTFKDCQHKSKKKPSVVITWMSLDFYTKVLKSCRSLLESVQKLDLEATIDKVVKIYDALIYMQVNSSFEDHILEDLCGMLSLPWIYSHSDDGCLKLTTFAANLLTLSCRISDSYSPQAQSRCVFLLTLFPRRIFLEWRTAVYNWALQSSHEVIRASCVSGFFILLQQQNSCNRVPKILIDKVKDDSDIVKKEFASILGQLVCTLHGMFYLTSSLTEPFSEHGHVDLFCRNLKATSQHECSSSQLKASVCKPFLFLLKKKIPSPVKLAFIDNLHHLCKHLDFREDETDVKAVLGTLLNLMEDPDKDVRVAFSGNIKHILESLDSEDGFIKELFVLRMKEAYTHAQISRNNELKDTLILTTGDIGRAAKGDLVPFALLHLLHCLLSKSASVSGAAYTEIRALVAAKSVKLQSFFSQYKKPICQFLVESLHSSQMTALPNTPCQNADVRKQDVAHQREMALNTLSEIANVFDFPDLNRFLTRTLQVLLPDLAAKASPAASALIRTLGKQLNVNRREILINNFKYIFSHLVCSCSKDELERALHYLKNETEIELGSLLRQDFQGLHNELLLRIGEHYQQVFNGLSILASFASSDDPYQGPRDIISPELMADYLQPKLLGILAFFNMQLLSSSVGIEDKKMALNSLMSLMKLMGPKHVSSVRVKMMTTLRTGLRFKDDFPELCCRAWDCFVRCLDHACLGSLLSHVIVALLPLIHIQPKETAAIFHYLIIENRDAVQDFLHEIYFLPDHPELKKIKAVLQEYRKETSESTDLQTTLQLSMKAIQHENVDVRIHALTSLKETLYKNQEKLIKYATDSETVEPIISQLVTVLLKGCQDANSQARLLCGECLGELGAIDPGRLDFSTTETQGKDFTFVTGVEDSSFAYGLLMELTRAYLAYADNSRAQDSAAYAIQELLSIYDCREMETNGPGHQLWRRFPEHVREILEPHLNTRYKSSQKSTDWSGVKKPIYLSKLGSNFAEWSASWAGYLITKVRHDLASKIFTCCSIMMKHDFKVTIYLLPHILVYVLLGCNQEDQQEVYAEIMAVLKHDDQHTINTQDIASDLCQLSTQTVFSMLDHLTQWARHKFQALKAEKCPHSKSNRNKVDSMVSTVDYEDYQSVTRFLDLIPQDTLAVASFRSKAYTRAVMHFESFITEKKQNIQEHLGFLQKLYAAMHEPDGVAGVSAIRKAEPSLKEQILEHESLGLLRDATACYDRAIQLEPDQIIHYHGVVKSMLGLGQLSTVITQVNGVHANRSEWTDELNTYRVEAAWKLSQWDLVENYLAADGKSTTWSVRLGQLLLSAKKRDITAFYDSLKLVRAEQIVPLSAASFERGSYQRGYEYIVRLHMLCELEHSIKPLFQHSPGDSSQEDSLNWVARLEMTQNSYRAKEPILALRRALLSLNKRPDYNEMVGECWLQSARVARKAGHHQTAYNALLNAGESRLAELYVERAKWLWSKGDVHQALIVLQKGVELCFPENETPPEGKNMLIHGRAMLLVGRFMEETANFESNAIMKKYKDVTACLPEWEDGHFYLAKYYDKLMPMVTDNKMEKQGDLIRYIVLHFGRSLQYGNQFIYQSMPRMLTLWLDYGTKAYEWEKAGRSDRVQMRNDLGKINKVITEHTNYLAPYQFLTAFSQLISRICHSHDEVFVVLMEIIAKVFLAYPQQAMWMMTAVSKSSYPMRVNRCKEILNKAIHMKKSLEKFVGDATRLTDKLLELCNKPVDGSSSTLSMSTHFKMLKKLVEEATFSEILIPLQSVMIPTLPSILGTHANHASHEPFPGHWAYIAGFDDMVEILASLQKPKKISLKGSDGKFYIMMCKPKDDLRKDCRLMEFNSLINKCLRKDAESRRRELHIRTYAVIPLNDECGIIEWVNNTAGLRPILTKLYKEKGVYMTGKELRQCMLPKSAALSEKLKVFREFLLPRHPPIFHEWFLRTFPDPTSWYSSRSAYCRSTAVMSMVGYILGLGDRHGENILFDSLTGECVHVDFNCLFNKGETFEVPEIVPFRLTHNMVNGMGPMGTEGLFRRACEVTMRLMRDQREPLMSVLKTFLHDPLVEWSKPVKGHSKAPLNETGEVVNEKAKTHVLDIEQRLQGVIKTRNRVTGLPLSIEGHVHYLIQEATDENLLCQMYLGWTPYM
# Sequence (Q8WXE1 other isoform, or with tags, fused parts or gaps partner): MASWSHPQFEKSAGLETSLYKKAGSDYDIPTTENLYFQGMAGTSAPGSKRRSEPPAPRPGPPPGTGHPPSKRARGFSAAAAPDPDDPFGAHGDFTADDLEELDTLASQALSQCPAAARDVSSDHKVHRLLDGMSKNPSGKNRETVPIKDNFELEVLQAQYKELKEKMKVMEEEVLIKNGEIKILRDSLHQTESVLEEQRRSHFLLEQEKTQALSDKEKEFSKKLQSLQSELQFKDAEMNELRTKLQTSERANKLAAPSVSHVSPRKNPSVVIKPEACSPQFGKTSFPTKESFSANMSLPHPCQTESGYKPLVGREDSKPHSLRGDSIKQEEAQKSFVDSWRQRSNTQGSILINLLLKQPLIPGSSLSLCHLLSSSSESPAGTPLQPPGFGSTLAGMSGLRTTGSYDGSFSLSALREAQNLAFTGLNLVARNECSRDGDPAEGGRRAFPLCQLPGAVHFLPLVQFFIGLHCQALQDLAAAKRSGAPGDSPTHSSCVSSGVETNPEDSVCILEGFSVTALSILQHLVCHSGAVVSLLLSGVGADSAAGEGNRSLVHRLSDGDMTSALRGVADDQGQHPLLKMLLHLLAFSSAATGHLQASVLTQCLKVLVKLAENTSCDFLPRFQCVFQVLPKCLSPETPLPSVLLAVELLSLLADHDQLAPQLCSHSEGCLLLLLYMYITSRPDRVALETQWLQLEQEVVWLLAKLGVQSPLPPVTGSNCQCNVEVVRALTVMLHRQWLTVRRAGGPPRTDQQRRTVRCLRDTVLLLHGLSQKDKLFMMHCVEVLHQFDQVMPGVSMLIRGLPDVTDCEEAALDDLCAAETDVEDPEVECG
# Measurement protocol: Binding assay ATR (TR-FRET tracer displacement)
# Applied conditions: tracer A, TR-FRET; read-out: ATR binding (tracer A) IC50
pIC50: −log10 of the molar value.
Reported values of pIC50 for individual entries
Reported endpoint: pIC50

>>> df
                                    compound                             tested_target  reported_endpoint   val
 0  Cc1noc(C)c1-c1cc(N2CCOC[C@H]2C)nc2c(-c3ccn[nH]3)nccc12  full-length human ATR protein (Homo sapiens (Human), UniProt Q13535)              pIC50  8.06
 1  Fc1ncccc1-c1cc(N2CCOCC2)nc2c(-c3ccn[nH]3)nccc12  full-length human ATR protein (Homo sapiens (Human), UniProt Q13535)              pIC50  7.07
 2  C[C@@H]1COCCN1c1cc(-c2ccnn2C(C)(C)C)c2ccnc(-c3ccn[nH]3)c2n1  full-length human ATR protein (Homo sapiens (Human), UniProt Q13535)              pIC50  7.87
 3  COC(=O)c1ccc(-c2cc(N3CCOC[C@H]3C)nc3c(-c4ccn[nH]4)nccc23)[nH]1  full-length human ATR protein (Homo sapiens (Human), UniProt Q13535)              pIC50  7.88
 4  C[C@@H]1COCCN1c1cc(-c2cn(C)nc2C(F)(F)F)c2ccnc(-c3ccn[nH]3)c2n1  full-length human ATR protein (Homo sapiens (Human), UniProt Q13535)              pIC50  7.77
 5  Cc1nn(C)cc1-c1cc(N2CCOC[C@H]2C)nc2c(-c3ccn[nH]3)nccc12  full-length human ATR protein (Homo sapiens (Human), UniProt Q13535)              pIC50  7.86
 6  CC(C)Cn1cc(-c2cc(N3CCOC[C@H]3C)nc3c(-c4ccn[nH]4)nccc23)cn1  full-length human ATR protein (Homo sapiens (Human), UniProt Q13535)              pIC50  7.71
 7  NC(=O)c1cc(N2CCOCC2)nc2c(-c3cc[nH]n3)nccc12  full-length human ATR protein (Homo sapiens (Human), UniProt Q13535)              pIC50  5.82
 8  Cc1cc(S(C)(=O)=O)ncc1-c1cc(N2CCOC[C@H]2C)nc2c(-c3ccn[nH]3)nccc12  full-length human ATR protein (Homo sapiens (Human), UniProt Q13535)              pIC50  7.92
 9  c1ccc2c(c1)CCN(c1cc(N3CCOCC3)nc3c(-c4ccn[nH]4)nccc13)C2  full-length human ATR protein (Homo sapiens (Human), UniProt Q13535)              pIC50  6.93
10  CC(C)S(=N)(=O)c1ccc(-c2cc(N3CCOCC3)nc3c(-c4ccn[nH]4)nccc23)cc1 (stereo not drawn)  full-length human ATR protein (Homo sapiens (Human), UniProt Q13535)              pIC50  6.96
11  C[C@@H]1COCCN1c1cc(N=S2(=O)CCCC2)c2ccnc(-c3ccn[nH]3)c2n1  full-length human ATR protein (Homo sapiens (Human), UniProt Q13535)              pIC50  7.59
